IC50 values by entry
# Target System: GPR6 (Homo sapiens)
# Construct: expressed in transfected cells; host or cells: CHO cells
# Protocol: GPR6 antagonist functional cAMP assay (LANCE Ultra cAMP TR-FRET, CHO cells stably expressing GPR6)
# Type: cell-based
# Reported Conditions: CHO cells stably expressing GPR6, cAMP assay (Example 24)

{"Compound": "COCCNc1cc2nc(N3CCC(Oc4ccc(F)cc4F)CC3)c(-c3cnn(C)c3)nc2cn1 [Compound 380]", "Recorded Value": "0.1 to 1 µM"}
{"Compound": "CC(=O)N1CCc2nc(N3CCC(Oc4ccc(F)cc4F)CC3)c(C3=CCOCC3)nc2C1 [Compound 198]", "Recorded Value": "0.1 to 1 µM"}
{"Compound": "Cc1nccc2nc(N3CCC(Oc4ccc(F)cc4F)CC3)c(-c3cnn(C)c3)nc12 [Compound 487]", "Recorded Value": "< 0.1 µM"}
{"Compound": "COCC(=O)N1CCc2nc(N3CCC(Oc4ccc(F)cc4F)CC3)c(-c3cnn(C4CCCCO4)c3)nc2C1 (centres unmarked) [Compound 201]", "Recorded Value": "1 to 30 µM"}
{"Compound": "Cn1cc(-c2nc3cnc(C4(O)COCC4O)cc3nc2N2CCC(Oc3ccc(F)cc3F)CC2)cn1 (centres unmarked) [Compound 412]", "Recorded Value": "1 to 30 µM"}
{"Compound": "CC(=O)N1CCc2nc(N3CCC(Oc4ccc(F)cc4F)CC3)c(-c3cccc(F)n3)nc2C1 [Compound 57]", "Recorded Value": "1 to 30 µM"}

Input: Consider the compound shown here: Cn1cc(-c2nc3cnc(C(O)C(C)(C)O)cc3nc2N2CCC(Oc3ccc(F)cc3F)CC2)cn1 (centres unmarked) [Compound 263] What is its recorded IC50?
Output: 0.1 to 1 µM

Input: Consider the compound shown here: CC(=O)N1CCc2nc(N3CCC(Oc4cccc(F)c4)CC3)c(-c3cnn(C)c3)nc2C1 [Compound 393] What is its recorded IC50?
Output: 1 to 30 µM

Input: Consider the compound shown here: O=S(=O)(C1COC1)N1CCc2nc(N3CCC(Oc4ccc(F)cc4F)CC3)c(-c3cnn(C4CCCCO4)c3)nc2C1 (centres unmarked) [Compound 151] What is its recorded IC50?
Output: 1 to 30 µM

---

pIC50 values by entry
# Target System: GPR6 (Homo sapiens, UniProt P46095)
# Construct: expressed in transfected cells; host or cells: CHO cells
# Sequence (P46095 whole entry): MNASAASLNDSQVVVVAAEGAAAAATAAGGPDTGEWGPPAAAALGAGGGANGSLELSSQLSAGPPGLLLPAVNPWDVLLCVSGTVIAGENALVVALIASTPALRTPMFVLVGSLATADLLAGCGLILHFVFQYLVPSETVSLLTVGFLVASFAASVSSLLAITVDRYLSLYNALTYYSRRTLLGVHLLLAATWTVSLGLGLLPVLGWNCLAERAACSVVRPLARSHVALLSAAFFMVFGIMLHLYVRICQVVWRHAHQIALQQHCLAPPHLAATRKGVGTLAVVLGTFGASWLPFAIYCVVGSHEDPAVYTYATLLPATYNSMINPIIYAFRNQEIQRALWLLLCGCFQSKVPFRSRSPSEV
# Protocol: GPR6 antagonist functional cAMP assay (LANCE Ultra cAMP TR-FRET, CHO cells stably expressing GPR6)
# Assay type: cell-based
# Reported Conditions: CHO cells stably expressing GPR6, cAMP assay (Example 24)
pIC50: −log10 of the molar value.

{"Molecule": "COCn1ccnc1-c1nc2c(nc1N1CCC(Oc3ccc(F)cc3F)CC1)CCN(C(C)=O)C2 [Compound 67]", "Target System": "GPR6 (Homo sapiens, UniProt P46095)", "Experimental Readout": "pIC50", "Recorded Value": "4.52 to 6.00"}
{"Molecule": "CC(O)C(O)c1cc2nc(N3CCC(Oc4ccc(F)cc4F)CC3)c(-c3cnn(C)c3)nc2cn1 (stereo not drawn) [Compound 401]", "Target System": "GPR6 (Homo sapiens, UniProt P46095)", "Experimental Readout": "pIC50", "Recorded Value": "6.00 to 7.00"}

Input: Consider the molecule shown here: CC(=O)N1CCc2nc(N3CCC(Oc4ccc(F)cc4F)CC3)c(-c3cnn(C4CN(C(C)=O)C4)c3)nc2C1 [Compound 163] What is its recorded pIC50?
Output: 4.52 to 6.00

Input: Consider the molecule shown here: COCC1(Oc2ccc(F)cc2F)CCN(c2nc3ccncc3nc2-c2cn[nH]c2)CC1 [Compound 63] What is its recorded pIC50?
Output: 4.52 to 6.00

Input: Consider the molecule shown here: CC(=O)N1CCc2nc(N3CCC(Oc4ccc(F)cc4F)CC3)c(-c3cnn(CF)c3)nc2C1 [Compound 439] What is its recorded pIC50?
Output: > 7.00

Input: Consider the molecule shown here: CC(=O)N1CCc2nc(N3CCC(Oc4ccc(F)cc4F)CC3)c(-c3cccc(C)n3)nc2C1 [Compound 68] What is its recorded pIC50?
Output: 6.00 to 7.00
